# ASSAY DETAILS: in vitro
# CONDITION INFO: human, microsomes, pH 7.4
compounds and their reported half-life

CCOC(=O)C=CC(CC1CCNC1=O)NC(=O)C(CC(C)C)NC(=O)C(NC(=O)OCc1ccccc1)C(C)OC(C)(C)C (centres unmarked) [compound 4] : 19 min

// switching to the query compound
## Input // returns reported half-life for input CC(C)CC(NC(=O)OCc1ccccc1)C(=O)NC(CC1CCNC1=O)C(O)S(=O)(=O)O (centres unmarked) [GC376, reference compound]
## Output > 80 min

---

# SYSTEM NAME: SARS-CoV-2 3CL protease (Severe acute respiratory syndrome coronavirus 2)
# Assay type: biochemical
# CONDITION INFO: log of IC50 in µM, Figure S1 and S2
molecules and their reported LogIC50
Response field accepts a number only; no unit should be typed.

Example entries and their recorded answers appear below.
O=C(NCCC1=CCOCC1)c1cccnc1S : 1.496
Cc1cnccc1CCNC(=O)c1cccnc1S : 1.315
NS(=O)(=O)c1ccc(S)nc1 : 1.348
CN1C(=O)CCc2cc(C(=O)CCl)ccc21 : 1.688
Cc1ccccc1CN1CCN(C(=O)CCl)CC1 : 1.554

## Input Can you look up LogIC50 on SARS-CoV-2 3CL protease (Severe acute respiratory syndrome coronavirus 2) for O=C(CCl)N1CCN(Cc2cccs2)CC1 ?
## Output 1.677

## Input Now give it for Nc1cccnc1S too.
## Output 1.183

---

# SYSTEM NAME: SARS-CoV-2 3CL protease (Severe acute respiratory syndrome coronavirus 2)
# Type: biochemical
# CONDITION INFO: dose-response curve of fragment hit, Figure S1 and S2
hey, just use Y if measured IC50 is less than 30 µM, otherwise N

CCN(c1ccc(C(=O)CCl)cc1)S(C)(=O)=O : N
Cc1ccc(CNC(=O)n2ccnc2)cc1 : Y
CN(C)C(=O)c1csc(C(=O)CCl)c1 : N
Cc1ccccc1CN1CCCN(C(=O)CCl)CC1 : N

Now for another entry.
## Input Is IC50 strictly under 30 µM for the entry CSc1cc(C(=O)CCl)ccc1NC(C)=O ?
## Output N

---

# SYSTEM NAME: SARS-CoV-2 3CL protease (Severe acute respiratory syndrome coronavirus 2)
# Type: biochemical
# Set-up: unit not given here
# CONDITION INFO: Conc 100 µM; average response of dose-response curve
Heads up, the class ranges for Avg are range 1 (below 90), range 2 (90 to below 100), range 3 (100 or more)

Take a look at these entries with their results.
N#C/C=C/S(=O)(=O)c1ccc(Cl)cc1 : range 2
O=C(CCl)N1CCOC(c2ccc(F)cc2)C1 (stereo not shown) : range 2
O=C(NCCc1ccc(F)cc1)n1ccnc1 : range 2
Cc1ccccc1CN1CCN(C(=O)CCl)CC1 : range 1
O=C(CCl)c1ccc2c(c1)CCN(C(=O)C(F)(F)F)C2 : range 1

Now for another entry.
## Input Form: Item = O=C(CCl)N1CCN(Cc2cccs2)CC1 ; Class = ?
## Output range 1

---

pIC50: −log10 of the molar value.
Parameter pIC50, tested on Trypsin (Bos taurus), listed per item.
Sequence (P00760 24-246): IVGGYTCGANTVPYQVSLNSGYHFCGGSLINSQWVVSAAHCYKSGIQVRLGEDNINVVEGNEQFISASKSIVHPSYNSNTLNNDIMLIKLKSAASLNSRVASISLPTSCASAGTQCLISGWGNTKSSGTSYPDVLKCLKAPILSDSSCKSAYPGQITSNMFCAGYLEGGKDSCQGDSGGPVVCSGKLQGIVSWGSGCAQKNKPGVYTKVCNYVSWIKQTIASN

CC(C)C[C@H](NC(=O)OCc1cccc(C(F)(F)F)c1)C(=O)N[C@@H](C[C@@H]1CCNC1=O)C(O)S(=O)(=O)O (some centres unmarked) : < 4.00

// switching to the query molecule
## Input // returns reported pIC50 for input CC(C)C[C@H](NC(=O)OCc1ccccc1Cl)C(=O)N[C@@H](C[C@@H]1CCNC1=O)C(O)S(=O)(=O)O (some centres unmarked)
## Output < 4.00

---

# ASSAY DETAILS: in vitro
# CONDITION INFO: CD-1, mouse, plasma
ENDPOINT LABEL: half-life (min)
Give the value in min but do not write min after it.

## Input // returns reported half-life for input CCOC(=O)C=CC(CC1CCNC1=O)NC(=O)C(CC(C)C)NC(=O)C(NC(=O)OCc1ccccc1)C(C)OC(C)(C)C (centres unmarked) [compound 4]
## Output 10

---

# SYSTEM NAME: Cathepsin L (Homo sapiens)
# Construct: Human liver; from tissue; host or cells: human liver
# Sequence (P07711 114-333): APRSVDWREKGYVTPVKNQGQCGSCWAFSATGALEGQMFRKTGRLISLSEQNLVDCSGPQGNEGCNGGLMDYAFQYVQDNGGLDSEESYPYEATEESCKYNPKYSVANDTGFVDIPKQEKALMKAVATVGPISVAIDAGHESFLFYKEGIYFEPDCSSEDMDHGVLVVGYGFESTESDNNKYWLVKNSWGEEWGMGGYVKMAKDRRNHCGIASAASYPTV
# ASSAY DETAILS: Protease selectivity panel: Cathepsin L
# Assay type: biochemical
# CONDITION INFO: Human liver; substrate 2 (MCA-PLGL-Dap(Dnp)-AR-NH2), 0.5 nM Cathepsin L; read-out: IC50
molecules and their reported IC50
Give the value in nM but do not write nM after it.

## Input // returns reported IC50 for input CC(C)C[C@H](NC(=O)OCc1cccc(C(F)(F)F)c1)C(=O)N[C@@H](C[C@@H]1CCNC1=O)C(O)S(=O)(=O)O (some centres unmarked)
## Output 170

## Input Now give it for CC(C)C[C@H](NC(=O)OCc1ccccc1Cl)C(=O)N[C@@H](C[C@@H]1CCNC1=O)C(O)S(=O)(=O)O (some centres unmarked) too.
## Output 6

---

# SYSTEM NAME: Furin (Homo sapiens, UniProt P09958)
# Sequence (P09958 108-715): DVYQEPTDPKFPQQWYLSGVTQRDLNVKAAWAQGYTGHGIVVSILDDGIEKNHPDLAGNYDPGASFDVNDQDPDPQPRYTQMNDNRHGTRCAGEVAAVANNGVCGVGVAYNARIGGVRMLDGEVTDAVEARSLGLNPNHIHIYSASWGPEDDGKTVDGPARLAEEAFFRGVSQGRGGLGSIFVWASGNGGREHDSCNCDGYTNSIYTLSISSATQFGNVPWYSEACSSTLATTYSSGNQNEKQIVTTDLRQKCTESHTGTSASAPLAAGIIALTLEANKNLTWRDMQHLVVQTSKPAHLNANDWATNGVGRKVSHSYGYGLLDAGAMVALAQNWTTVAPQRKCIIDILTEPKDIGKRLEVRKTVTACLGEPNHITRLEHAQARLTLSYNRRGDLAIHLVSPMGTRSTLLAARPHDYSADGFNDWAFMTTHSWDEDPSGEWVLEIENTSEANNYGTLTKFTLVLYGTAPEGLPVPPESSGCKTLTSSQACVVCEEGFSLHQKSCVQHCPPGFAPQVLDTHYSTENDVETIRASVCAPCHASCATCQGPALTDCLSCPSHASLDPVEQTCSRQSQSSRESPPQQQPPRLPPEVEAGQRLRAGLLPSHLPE
pIC50: −log10 of the molar value.
compounds and their reported pIC50

CC(C)C[C@H](NC(=O)OCc1ccccc1Cl)C(=O)N[C@@H](C[C@@H]1CCNC1=O)C(O)S(=O)(=O)O (some centres unmarked) [EB54] : < 4.00

// switching to the query compound
## Input Can you look up pIC50 on Furin (Homo sapiens, UniProt P09958) for CC(C)C[C@H](NC(=O)OCc1cccc(C(F)(F)F)c1)C(=O)N[C@@H](C[C@@H]1CCNC1=O)C(O)S(=O)(=O)O (some centres unmarked) [NK01-63] ?
## Output < 4.00

---

# SYSTEM NAME: SARS-CoV-2 3CL protease (Severe acute respiratory syndrome coronavirus 2, UniProt P0DTD1)
# ASSAY DETAILS: biochemical
# CONDITION INFO: read-out: SARS-CoV-2 3CLpro kinact/KI
compounds and their reported kinact/KI
Include the unit right after the number.

Example entries and their recorded answers appear below.
CC(C)C[C@H](NC(=O)OCc1cc(F)c(F)cc1F)C(=O)N[C@@H](C[C@@H]1CCNC1=O)C(O)S(=O)(=O)O (stereo partly shown) [NK01-48] : 5000 M⁻¹ s⁻¹
CC(C)C[C@H](NC(=O)OCc1cccc2ccccc12)C(=O)N[C@@H](C[C@@H]1CCNC1=O)C(O)S(=O)(=O)O (stereo partly shown) [EB55] : 21700 M⁻¹ s⁻¹
O=C(N[C@@H](CC1CC1)C(=O)N[C@@H](C[C@@H]1CCNC1=O)C(O)S(=O)(=O)O)OCc1ccccc1 (stereo partly shown) [NK01-14] : 71700 M⁻¹ s⁻¹
O=C(N[C@@H](CC1CCCCC1)C(=O)N[C@@H](C[C@@H]1CCNC1=O)C(O)S(=O)(=O)O)OCc1ccccc1 (stereo partly shown) [SL-4-241] : 23300 M⁻¹ s⁻¹
CC(C)C[C@H](NC(=O)OCc1ccc2ccccc2c1)C(=O)N[C@@H](C[C@@H]1CCNC1=O)C(O)S(=O)(=O)O (stereo partly shown) [EB56] : 18300 M⁻¹ s⁻¹

## Input Can you look up kinact/KI on SARS-CoV-2 3CL protease (Severe acute respiratory syndrome coronavirus 2, UniProt P0DTD1) for CC(C)C[C@H](NC(=O)OCc1ccccc1Cl)C(=O)N[C@@H](C[C@@H]1CCNC1=O)C(O)S(=O)(=O)O (stereo partly shown) [EB54] ?
## Output 88300 M⁻¹ s⁻¹

## Input Now give it for O=C(N[C@@H](CC1CCCCC1)C(=O)N[C@@H](C[C@@H]1CCNC1=O)C(O)S(=O)(=O)O)OCc1cccc(Cl)c1 (stereo partly shown) [EB48] too.
## Output 35000 M⁻¹ s⁻¹

---

Parameter pIC50, tested on UniProt P03956, listed per item.
Sequence (P03956 100-268): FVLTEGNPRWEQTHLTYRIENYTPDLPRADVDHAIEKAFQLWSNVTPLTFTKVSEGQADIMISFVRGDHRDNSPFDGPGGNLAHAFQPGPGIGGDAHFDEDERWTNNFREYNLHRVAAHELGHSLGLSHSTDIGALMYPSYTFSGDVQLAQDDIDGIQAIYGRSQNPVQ
pIC50: −log10 of the molar value.

## Input // returns reported pIC50 for input CC(C)C[C@H](NC(=O)OCc1cccc(C(F)(F)F)c1)C(=O)N[C@@H](C[C@@H]1CCNC1=O)C(O)S(=O)(=O)O (some centres unmarked) [NK01-63]
## Output < 4.00

## Input Now give it for CC(C)C[C@H](NC(=O)OCc1ccccc1Cl)C(=O)N[C@@H](C[C@@H]1CCNC1=O)C(O)S(=O)(=O)O (some centres unmarked) [EB54] too.
## Output < 4.00

---

# SYSTEM NAME: Cathepsin L (Homo sapiens)
# Construct: Human liver; from tissue; host or cells: human liver
# ASSAY DETAILS: Protease selectivity panel: Cathepsin L
# Type: biochemical
# CONDITION INFO: read-out: IC50 on human cathepsin L
ENDPOINT LABEL: IC50 (nM)
Give the value in nM but do not write nM after it.

CC(C)C[C@H](NC(=O)OCc1cccc(C(F)(F)F)c1)C(=O)N[C@@H](C[C@@H]1CCNC1=O)C(O)S(=O)(=O)O (some centres unmarked) : 6

// switching to the query molecule
## Input Can you look up IC50 on Cathepsin L (Homo sapiens) for CC(C)C[C@H](NC(=O)OCc1ccccc1Cl)C(=O)N[C@@H](C[C@@H]1CCNC1=O)C(O)S(=O)(=O)O (some centres unmarked) ?
## Output 1
